# ASSAY SYSTEM: mouse B6 class I antigens (mouse)
# ASSAY: RMA-S cell MHC stabilisation, peptide 25 ug/ml, flow cytometry with FITC anti-D^b or anti-K^b; % increase of MFI over medium alone
Measured Binding Affinity to Mouse MHC Class I by item

{"BINDER": "YSSDNLYQM [WT1 peptide p221-229 (…)]", "Binding Affinity to Mouse MHC Class I, %": 0.8}
{"BINDER": "NQMNLGATL [WT1 peptide p239-247 (…)]", "Binding Affinity to Mouse MHC Class I, %": 1}
{"BINDER": "NLYQMTSQL [WT1 peptide p225-233 (…)]", "Binding Affinity to Mouse MHC Class I, %": 5.8}
{"BINDER": "QMTSQLECM [WT1 peptide p228-236 (…)]", "Binding Affinity to Mouse MHC Class I, %": 1.2}
{"BINDER": "CMTWNQMNL [WT1 peptide p235-243 (…)]", "Binding Affinity to Mouse MHC Class I, %": 33.6}
{"BINDER": "GCNKRYFKL [WT1 peptide p329-337 (…)]", "Binding Affinity to Mouse MHC Class I, %": 1.2}
{"BINDER": "ALLPAVPSL [WT1 peptide human p10-18 (…)]", "Binding Affinity to Mouse MHC Class I, %": 2.2}
{"BINDER": "SCLESQPAI [WT1 peptide human p136-144 (…)]", "Binding Affinity to Mouse MHC Class I, %": 52}
